assay: ADME screening: cell permeability and efflux ratio; conditions: not told
ENDPOINT LABEL: efflux ratio

> print(dat)
                                   compound  endpoint.label  measured
1  CN(C)CCN1CCN(Cc2cc(Nc3c4ccc(Cl)cc4nc4ccc(O)cc34)ccc2O)CC1    efflux ratio       > 2

Okay, next one:
Req: Which efflux ratio value is on record for COc1ccc2nc3cc(Cl)ccc3c(Nc3ccc(O)c(CN4CCN(C)CC4)c3)c2c1 [Compound F06, reference compound] ?
Resp: > 2
